- System: PACAP receptor in rat brain crude membrane (rat)
- Run Description: displacement of [^125 I]PACAP 27 from rat brain crude membranes
No end group written: not given here.
Measured Property: IC50 (nM)

INSERT INTO results (binder, unit, result) VALUES
  ('FTDSYSRYRKQMAVKKYLAAVL-NH2 [PACAP 6-27 (SEQ ID NO: 7-NH2)]', 'nM', 1030);

P: FTDSYSRYRKQMAVKKYLAAVLGKRYKQRVKNK-NH2 [PACAP 6-38 (SEQ ID NO: 6-NH2)]
Q: HSDGIFTDSYSRYRKQMAVKKYLAAVL-NH2 (ligand) [PACAP 27 (SEQ ID NO: 5-NH2)]
R: HSDGIFTDSYSRYRKQMAVKKYLAAVLGKRYKQRVKNK-NH2 (ligand) [PACAP 38 (SEQ ID NO: 4-NH2)]
With regard to IC50, arrange the entries in ascending order, please. # answer = labels listed in requested order
R, Q, P
